Protocol: P. aeruginosa biofilm formation inhibitors, primary screen, strain PAO1, LB-PBS medium, absorbance 600 nm (AID 1176); further: test concentration not given here
Study Conditions: P. aeruginosa PAO1 growth/biofilm, A600, 12 h; higher = more signal
Field: z-score. Provide a value for each of the compounds that follow.
// return a plain number; no unit text

Query: Which z-score is listed for COc1cc2c(cc1OC)CN(C(=O)[C@H]1[C@@H]3C(=O)O[C@@H](c4ccccc4)[C@@H](c4ccccc4)N3[C@@H](c3ccc(OCCO)cc3)[C@]13C(=O)Nc1ccc(C#CCCO)cc13)CC2 ?
Reply: 1.56

Query: Moving on to CCCCC(=C=CC[C@@H](O)c1ccc(OCCO)cc1)C[C@@H](O)COCc1ccccc1
Reply: 0.637

Query: Moving on to CO[C@H]1O[C@H](CO)[C@@H](OC(=O)Nc2ccc(Oc3ccccc3)cc2)[C@H](OC(=O)Nc2ccccc2-c2ccccc2)[C@@H]1OC(=O)Nc1ccccc1-c1ccccc1
Reply: 0.18

Query: Moving on to COC(=O)C[C@H]1O[C@]2(C(=O)N(C)c3ccccc32)[C@@H](C)[C@@H]1[Si](C)(C)c1ccc(C)cc1
Reply: -0.884

Query: Moving on to C=CCOC(=O)[C@H]1[C@@H]2C(=O)O[C@@H](c3ccccc3)[C@@H](c3ccccc3)N2[C@@H](c2ccc(OCCOC(=O)[C@H]3C[C@H]4C(=O)N[C@@H](Cc5ccccc5)C(=O)N4[C@H]3c3cccc(OCCO)c3)cc2)[C@]12C(=O)Nc1ccc(I)cc12
Reply: 2.17

Query: Moving on to CN(C)CCCCNC(=O)[C@H]1C[C@H]2C(=O)N[C@@H](CCCCN(C)C)C(=O)N2[C@H]1c1cccc(OCCO)c1
Reply: -1.48

====

Tested on: Chordin-like protein 2 (CHRDL2)
Protocol: CHRDL2 small-molecule binders, primary screen, biochemical, small-molecule microarray, 635 nm fluorescence (AID 1126);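 further: printed compound slides probed with Chrdl2 protein at 4 µg/mL for 1 h at 4 C; score merges 667 nm emission intensity with signal to noise over three replicate slides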
Study Conditions: small-molecule microarray binding, fluorescence 635 nm; higher = more signal
Parameter threshold = -0.4. Response is Fulfilled when composite z-score meets or exceeds it, else Not fulfilled.

Query: Given CC(C)N1C(=O)[C@@]2(c3ccc([N+](=O)[O-])cc3)CC(=O)N(C3CCCCC3)[C@@H]2c2ccc(CO)cc21 , state whether its composite z-score is at least -0.4.
Reply: Fulfilled

Query: Moving on to CC(C)(C)OC(=O)CC[C@]1(C(=O)N2CCOCC2)N=C(c2ccc(OCCCO)cc2)O[C@H]1c1ccccc1
Reply: Fulfilled

Query: Moving on to C[C@H]1C2=C3C(CC[C@H]4C(OCc5ccc(F)cc5C(F)(F)F)OC[C@](C)([C@@H]34)N(C(=O)OC(C)(C)C)C2)C2COC(=O)OCC21 (stereo partly drawn)
Reply: Not fulfilled

Query: Moving on to O=C1OCC=C[C@H]2OC34C=CCN(Cn5nnc6ccccc65)C(=O)[C@H]3N(CCCCCCO)C(=O)[C@@H]4[C@@H]12 (stereo partly drawn)
Reply: Not fulfilled

Query: Moving on to CN(C)CCCNC(=O)[C@@H]1c2ccccc2C(=O)N(CC23CC4CC(CC(C4)C2)C3)[C@H]1c1ccc(CO)cc1
Reply: Fulfilled

Query: Moving on to CC=CC(O)C1C=CC2C(=O)N(c3ccccc3)C(=O)C2N1Nc1ccccc1 (stereo not drawn)
Reply: Fulfilled

Query: Moving on to CCCC[C@@H]1C[C@H]1[C@@H](NC(=O)c1ccccc1)c1ccc(Cl)cc1
Reply: Not fulfilled

====

Protocol: binders of probe aFST on microarray, primary screen, stem cell growth factor project, biochemical, small-molecule microarray, fluorescence 635/667 (AID 1086);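 further: score merges 667 nm fluorescence with signal-to-noise of each printed compound spot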
Study Conditions: higher = more signal
Observed Property: composite z-score

Query: Which composite z-score is listed for CCOC(=O)C[C@H]1[C@H](OC(=O)c2ccccc2-c2ccccc2)[C@@H](NC(=O)CC(C)C)c2cc(OCCCO)ccc2N1C(=O)c1ccc2ccccc2n1 ?
Reply: 0.535

Query: Moving on to O=C1NC(=O)C2C1C=CC(C(O)c1c(F)cccc1Cl)N2Nc1ccccn1 (stereo unspecified)
Reply: -0.014

Query: Moving on to COc1ccc(C(O)C2C=CC3C(=O)N(C)C(=O)C3N2N2CCCCC2)cc1 (stereo unspecified)
Reply: 0.201

Query: Moving on to [N-]=[N+]=Nc1ccccc1C[C@]1(C(=O)NCc2ccccc2)N=C(c2ccc(OCCCO)cc2)O[C@H]1c1ccccc1
Reply: 1.22

Query: Moving on to CN1C2C=C(CCCO)C(C3C(=O)N(C(N)=O)C(=O)C32)C1c1cccs1 (stereo unspecified)
Reply: 0.0118

Query: Moving on to C=CC[C@]1(C(=O)N(C)C)N=C(c2ccc(OCCCO)cc2)O[C@H]1c1ccccc1N=[N+]=[N-]
Reply: 1.87

Query: Moving on to CN1C(=O)C2C=CC(C(O)C3CCCCC3)N(N3CCCCC3)C2C1=O (stereo unspecified)
Reply: 1.01

Query: Moving on to O=C1c2ccccc2[C@](Cc2ccccc2I)(C(=O)NCc2ccccc2)[C@H](c2ccc(CO)cc2)N1C1CCCCC1
Reply: 0.671

Query: Moving on to CC(C)CN1C(=O)[C@@]2(c3ccc([N+](=O)[O-])cc3)CC(=O)N(CC34CC5CC(CC(C5)C3)C4)[C@@H]2c2ccc(CO)cc21
Reply: 0.0959

Query: Moving on to COCC(=C=CC[C@H](O)c1ccc(OCCO)cc1)C[C@H](O)COCc1ccccc1
Reply: 0.163

Query: Moving on to CCCCC(CC)C(O)C1C=CC2C(=O)N(c3ccccc3)C(=O)C2N1Nc1ccc([N+](=O)[O-])cc1 (stereo unspecified)
Reply: 1.1

Query: Moving on to COc1ccc([Si](C)(C)[C@@H]2[C@@H](CC(=O)N3CCC[C@H]3CO)O[C@]3(C(=O)N(Cc4ccc(N5C(=O)c6cccc7cccc5c67)cc4)c4ccccc43)[C@H]2C)cc1
Reply: 0.622

Query: Moving on to CC(=O)N1Cc2ccccc2C[C@]2(N=C(c3ccc(OCCCO)cc3)O[C@@H]2c2ccccc2)C1=O
Reply: 0.33

Query: Moving on to COCCOC(=O)N1C(=O)[C@@]2(c3ccccc31)[C@H](C(=O)N1CCN(c3ncccn3)CC1)[C@H]1C(=O)O[C@H](c3ccccc3)[C@H](c3ccccc3)N1[C@@H]2c1ccc(OCCO)cc1
Reply: 0.593

Query: Moving on to CC=CC(O)C1C=CC2C(=O)N(c3ccccc3)C(=O)C2N1Nc1ccc([N+](=O)[O-])cc1 (stereo unspecified)
Reply: 0.126

Query: Moving on to CCCC[C@@H]1C[C@H]1[C@@H](NC(=O)c1cccnc1)c1ccc(-c2ccccc2)cc1
Reply: -1.23

====

Protocol: binders of probe aFSTL3 on microarray, primary screen, stem cell growth factor project, biochemical, small-molecule microarray, fluorescence 635/667 (AID 1064);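 further: measures binding of the biotinylated anti-FSTL3 antibody to printed compounds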
Study Conditions: higher = more signal
Observed Property: composite z-score
// return a plain number; no unit text

Query: Which composite z-score is listed for CC(C)NC(=O)[C@@]1(C)c2ccccc2C(=O)N(C(C)C)[C@H]1c1ccc(CO)cc1 ?
Reply: -0.0225

Query: Moving on to COCCOC(=O)N1C(=O)[C@@]2(c3cc(C#Cc4ccc(OC)cc4)ccc31)[C@H](C(=O)NC[C@H](O)c1ccccc1)[C@H]1C(=O)O[C@H](c3ccccc3)[C@H](c3ccccc3)N1[C@@H]2c1ccc(O)cc1
Reply: -0.179

Query: Moving on to COC(=O)[C@@]1(Cc2ccccc2)[C@H]2c3cc(C(=O)N4CCCC4)n(Cc4cc(F)cc5c4OCOC5)c3C[C@H]2CN1C(=O)c1ccccc1
Reply: 0.752

Query: Moving on to CC(C)CNC(=O)[C@@]1(c2ccc([N+](=O)[O-])cc2)CC(=O)N(C2CCCCC2)[C@@H]1c1ccc(CO)cc1I
Reply: 0.0706

Query: Moving on to O=C1NC(=O)C2C1C=CC(C(O)c1ccc3c(c1)OCO3)N2Nc1ccccn1 (configuration not stated)
Reply: -0.0049

Query: Moving on to CCOC(=O)C[C@H]1[C@H](OC(=O)c2ccc(-c3ccccc3)cc2)[C@@H](NC(=O)c2ccc3ccccc3c2)c2cc(OCCCO)ccc2N1C(=O)c1ccc2ccccc2n1
Reply: -0.0093

Query: Moving on to COc1ccc([Si](C)(C)[C@H]2[C@H](CCn3cc([C@H](O)c4ccccc4)nn3)O[C@@]3(C(=O)N(Cc4ccc(N5CCOC5=O)cc4)c4ccccc43)[C@@H]2C)cc1
Reply: 0.365

====

Protocol: binders of probe aFSTL3 on microarray, primary screen, stem cell growth factor project, biochemical, small-molecule microarray, fluorescence 635/667 (AID 1064);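 further: measures binding of the biotinylated anti-FSTL3 antibody to printed compounds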
Study Conditions: higher = more signal
Field: composite z-score. Provide a value for each of the molecules that follow.
// return a plain number; no unit text

Query: Which composite z-score is listed for COc1c(C)cc(-c2cc3c(c(-c4ccccc4)n2)[Si](C(C)C)(C(C)C)OC3)cc1C ?
Reply: -0.0563

Query: Moving on to COCCOC(=O)N1C(=O)[C@@]2(c3cc(C#CCC(C(=O)OC)C(=O)OC)ccc31)[C@H](c1ccc(OCCO)cc1)N1[C@H](c3ccccc3)[C@H](c3ccccc3)OC(=O)[C@H]1[C@@H]2C(=O)N1CCN(c2ncccn2)CC1
Reply: -0.372

Query: Moving on to C=CCC(OC(C)=O)[C@@H]1[C@@H](N(Cc2cc3ccccc3o2)C(=O)c2ccc(C)cc2)c2cc(OCCCO)ccc2N1C(=O)Cc1ccc2ccccc2c1 (some centres not stated)
Reply: 0.222

Query: Moving on to CCCN1C(=O)[C@]2(Cc3ccccc3)N=C(c3ccc(OCCCO)cc3)O[C@@H]2c2ccccc21
Reply: 0.224

Query: Moving on to CC=CC(O)C1C=CC2C(=O)N(C)C(=O)C2N1N1CCCCC1 (configuration not stated)
Reply: -0.0771

Query: Moving on to C=CC[C@]1(C(=O)N(C)C)N=C(c2ccc(OCCCO)cc2)O[C@H]1c1ccccc1N=[N+]=[N-]
Reply: 0.396

Query: Moving on to COCCCNC(=O)[C@@]1(Sc2ccc(C)cc2)CC(=O)N(Cc2cc(C(F)(F)F)cc(C(F)(F)F)c2)[C@@H]1c1ccc(CO)cc1
Reply: 0.0028

Query: Moving on to COC(=O)C(CC#Cc1ccc2c(c1)[C@]1(C(=O)N2)[C@H](C(=O)O)[C@H]2C(=O)O[C@H](c3ccccc3)[C@H](c3ccccc3)N2[C@@H]1c1ccccc1OCCO)C(=O)OC
Reply: 0.232

Query: Moving on to COc1cc2c(cc1OC)CN(C(=O)[C@H]1[C@@H]3C(=O)O[C@@H](c4ccccc4)[C@@H](c4ccccc4)N3[C@@H](c3ccc(OCCO)cc3)[C@]13C(=O)Nc1ccc(C#CC4(O)CCCCCC4)cc13)CC2
Reply: 1.18

Query: Moving on to COc1ccc(C(O)C2C=CC3C(=O)N(c4ccccc4)C(=O)C3N2Nc2ccccc2)cc1OCc1ccccc1 (configuration not stated)
Reply: 0.12

Query: Moving on to CC(C)N1CC=CC23O[C@@H]4C=CCCOC(=O)C4[C@H]2C(=O)N(CCO)[C@@H]3C1=O (some centres not stated)
Reply: 0.108

Query: Moving on to C=CCC(OC(C)=O)[C@@H]1[C@@H](N(Cc2cc3ccccc3o2)C(=O)Cc2ccc(F)cc2)c2cc(OCCCO)ccc2N1C(=O)c1ccc2ccccc2n1 (some centres not stated)
Reply: -0.0583

Query: Moving on to CC(C)(C)OC(=O)CC[C@]1(C(=O)N2CCOCC2)N=C(c2ccc(OCCCO)cc2)O[C@H]1c1ccccc1
Reply: -0.209

Query: Moving on to CC(C)(C)OC(=O)CC[C@]1(C(=O)NCCN2CCOCC2)N=C(c2ccc(OCCCO)cc2)O[C@H]1c1ccccc1N=[N+]=[N-]
Reply: 0.85

Query: Moving on to COCCOC(=O)N1C(=O)[C@@]2(c3cc(C#CC4(O)CCCCCC4)ccc31)[C@H](C(N)=O)[C@H]1C(=O)O[C@H](c3ccccc3)[C@H](c3ccccc3)N1[C@@H]2c1ccc(O)cc1
Reply: -0.353

Query: Moving on to CCOC(=O)C[C@H]1[C@H](OC(=O)c2ccc(-c3ccccc3)cc2)[C@@H](NC(=O)C2CCCCC2)c2cc(OCCCO)ccc2N1C(=O)c1ccccc1
Reply: -0.539

Query: Moving on to [N-]=[N+]=NCc1ccccc1[C@H]1OC(c2ccc(OCCCO)cc2)=N[C@@]1(CCS(=O)(=O)c1ccccc1)C(N)=O
Reply: 0.573

Query: Moving on to C=C(/C(=C/C[C@@H](OC(=O)c1ccncc1)c1ccc(OCCO)cc1)c1cc(C(=O)OC)ccc1OC)C(C)C
Reply: -0.445

Query: Moving on to CC(C)CN1C(=O)[C@@]2(Cc3ccccc31)c1ccccc1C(=O)N(Cc1ccccc1C(F)(F)F)[C@H]2c1ccc(CO)cc1
Reply: 0.0106

Query: Moving on to CC1CC/C=C\[C@H]2OC34C=CCN(CCN5CCOCC5)C(=O)[C@H]3N(CCO)C(=O)[C@@H]4C2C(=O)O1 (some centres not stated)
Reply: 0.507

Query: Moving on to COCCOC(=O)N1C(=O)[C@@]2(c3cc(C#CC4(O)CCCCCC4)ccc31)[C@H](c1ccccc1OCCO)N1[C@H](c3ccccc3)[C@H](c3ccccc3)OC(=O)[C@H]1[C@@H]2C(N)=O
Reply: -0.452

Query: Moving on to CC(CO)N1C(=O)[C@@H]2C3C(=O)OCCC/C=C\[C@H]3OC23C=CCN(Cn2nnc4ccccc42)C(=O)[C@@H]13 (some centres not stated)
Reply: -0.185

Query: Moving on to NC(=O)NCC#Cc1ccc2c(c1)[C@]1(C(=O)N2)[C@H](c2ccc(O)cc2)N2[C@H](c3ccccc3)[C@H](c3ccccc3)OC(=O)[C@H]2[C@@H]1C(=O)Nc1nc2ccccc2s1
Reply: 0.289

Query: Moving on to O=C1O[C@@H](c2ccccc2)[C@@H](c2ccccc2)N2[C@@H](c3ccc(O)cc3)[C@]3(C(=O)Nc4ccc(C#CCCO)cc43)[C@@H](C(=O)Nc3nc4ccccc4s3)[C@H]12
Reply: 0.0071

Query: Moving on to Cc1c(NC(=O)/C(C#N)=C/C=C/c2ccccc2[N+](=O)[O-])c(=O)n(-c2ccccc2)n1C
Reply: -0.0331

Query: Moving on to Cc1c(NC(=O)/C(C#N)=C/C=C/c2ccc(N(C)C)cc2)c(=O)n(-c2ccccc2)n1C
Reply: -0.266

Query: Moving on to Cc1ccc(S[C@]2(C(=O)NC3CC3)CC(=O)N(Cc3ccccc3Cl)[C@@H]2c2ccc(CO)cc2I)cc1
Reply: 0.29
